Assay: Clearance in cynomolgus monkey at 0.5 mg/kg, iv
Format: ADME, organism-based, Macaca fascicularis
Details: in vivo

{"structureSmilesString": "C[C@H](c1ccc(Cl)cc1Cl)n1nc(C#N)c2ncc(N3CC([C@H]4CCCN(CCO)C4)C3)nc21", "clearance [mL/min/kg]": 3.7}

====

Assay: Oral bioavailability in cynomolgus monkey at 2 mg/kg
Format: ADME, organism-based, Macaca fascicularis
Details: in vivo

{"structureSmilesString": "C[C@H](c1ccc(Cl)cc1Cl)n1nc(C#N)c2ncc(N3CC([C@H]4CCCN(CCO)C4)C3)nc21", "bioavailability": "41%"}

====

Biological target: Cytochrome P450 3A4 (Homo sapiens, UniProt P08684)
Sequence (P08684 whole entry): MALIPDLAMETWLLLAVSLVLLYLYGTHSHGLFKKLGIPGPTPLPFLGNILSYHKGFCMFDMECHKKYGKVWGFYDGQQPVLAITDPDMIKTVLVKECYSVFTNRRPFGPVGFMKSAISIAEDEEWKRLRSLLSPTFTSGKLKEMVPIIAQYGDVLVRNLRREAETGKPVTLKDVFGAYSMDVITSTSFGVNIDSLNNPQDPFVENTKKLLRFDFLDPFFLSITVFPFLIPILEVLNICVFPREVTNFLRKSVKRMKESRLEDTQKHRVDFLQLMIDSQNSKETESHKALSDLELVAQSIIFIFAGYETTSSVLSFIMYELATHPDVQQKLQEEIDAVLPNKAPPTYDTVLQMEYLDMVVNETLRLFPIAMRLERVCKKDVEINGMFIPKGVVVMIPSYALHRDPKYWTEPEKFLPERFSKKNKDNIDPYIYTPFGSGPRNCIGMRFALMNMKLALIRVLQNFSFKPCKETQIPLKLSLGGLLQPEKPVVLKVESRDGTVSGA
pIC50: −log10 of the molar value.

{"structureSmilesString": "C[C@H](c1ccc(Cl)cc1Cl)n1nc(C#N)c2ncc(N3CC([C@H]4CCCN(CCO)C4)C3)nc21", "pIC50": "< 4.40"}

Where do these numbers come from? They come from ChEMBL document CHEMBL4627411.
